Test system: 653999-131-R-J2-PDC complex spheroids, growth inhibition
Experiment: Anticancer human tumor 653999-131-R-J2-PDC patient-derived lung adenocarcinoma cell line growth inhibition [RAS]
Conditions: second compound 0.1 µM; first compound 0.00949 µM; active compounds read low

{"columns": ["molecule", "viability, T/C"],
 "data": [
  ["CC1(C)CCC(Nc2ncc(C(F)(F)F)c(-c3c[nH]c4c(P(C)(C)=O)c(C#N)ccc34)n2)CN1 (centres undefined) + C=CC(=O)N1CCN(c2nc(OCC3CCCN3C)nc3c(F)c(-c4nc(N)cc(C)c4C(F)(F)F)c(Cl)cc23)C(C)C1", "61%"],
  ["CCc1c2c(nc3ccc(O)cc13)-c1cc3c(c(=O)n1C2)COC(=O)[C@]3(O)CC + C=CC(=O)N1CCN(c2nc(OCC3CCCN3C)nc3c(F)c(-c4nc(N)cc(C)c4C(F)(F)F)c(Cl)cc23)C(C)C1", "43.1%"],
  ["CCc1c2c(nc3ccc(O)cc13)-c1cc3c(c(=O)n1C2)COC(=O)[C@]3(O)CC + C#Cc1c(F)ccc2cc(O)cc(-c3ncc4c(N5CC6CCC(C5)N6)nc(OCC56CCCN5CC(F)C6)nc4c3F)c12", "48.4%"],
  ["CC1(C)CCC(Nc2ncc(C(F)(F)F)c(-c3c[nH]c4c(P(C)(C)=O)c(C#N)ccc34)n2)CN1 (centres undefined) + C#Cc1c(F)ccc2cc(O)cc(-c3ncc4c(N5CC6CCC(C5)N6)nc(OCC56CCCN5CC(F)C6)nc4c3F)c12", "59%"]
]}

* * *

System: 653999-131-R-J2-PDC complex spheroids, growth inhibition
Test: Anticancer human tumor 653999-131-R-J2-PDC cell line growth inhibition [RAS];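 further: spheroids exposed to the agents for seven days before the readout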
Conditions: second compound 10 µM; first compound 0.1 µM; active compounds read low
Flag rule - viability, T/C less than 10% flags 1.0; the remaining entries get 0.0.

{"columns": ["molecule", "assigned class"],
 "data": [
  ["O=C(c1ccc(F)c(F)c1Nc1ccc(I)cc1F)N1CC(O)([C@@H]2CCCCN2)C1 + C#Cc1c(F)ccc2cc(O)cc(-c3ncc4c(N5CC6CCC(C5)N6)nc(OCC56CCCN5CC(F)C6)nc4c3F)c12", 0.0],
  ["NC1c2ccccc2OC12CCN(c1cnc3c(N4CCCc5ncccc54)n[nH]c3n1)CC2 (stereo not given) + C#Cc1c(F)ccc2cc(O)cc(-c3ncc4c(N5CC6CCC(C5)N6)nc(OCC56CCCN5CC(F)C6)nc4c3F)c12", 1.0],
  ["Nc1ccn(C2OC(CO)C(O)C2(F)F)c(=O)n1 (stereo not given) + C#Cc1c(F)ccc2cc(O)cc(-c3ncc4c(N5CC6CCC(C5)N6)nc(OCC56CCCN5CC(F)C6)nc4c3F)c12", 0.0],
  ["CC(Nc1ccc2c(c1)OCCn1cc(N3C(=O)OCC3C(F)F)nc1-2)C(N)=O (stereo not given) + C#Cc1c(F)ccc2cc(O)cc(-c3ncc4c(N5CC6CCC(C5)N6)nc(OCC56CCCN5CC(F)C6)nc4c3F)c12", 0.0],
  ["C[C@@H](NC(=O)c1ncnc(N)c1Cl)c1ncc(C(=O)Nc2cc(C(F)(F)F)c(Cl)cn2)s1 + C#Cc1c(F)ccc2cc(O)cc(-c3ncc4c(N5CC6CCC(C5)N6)nc(OCC56CCCN5CC(F)C6)nc4c3F)c12", 0.0]
]}

* * *

Measured viability, T/C accompanies every entry in the list below.
Tested on: 653999-131-R-J2-PDC complex spheroids, growth inhibition
Test: Anticancer human tumor 653999-131-R-J2-PDC cell line growth inhibition [RAS];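 further: spheroids exposed to the agents for seven days before the readout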
Conditions: second compound 0.1 µM; first compound 0.3 µM; active compounds read low
property: viability, T/C

{"columns": ["compound", "val"],
 "data": [
  ["CC1(C)CCC(Nc2ncc(C(F)(F)F)c(-c3c[nH]c4c(P(C)(C)=O)c(C#N)ccc34)n2)CN1 (centres undefined) + C=CC(=O)N1CCN(c2nc(OCC3CCCN3C)nc3c(F)c(-c4nc(N)cc(C)c4C(F)(F)F)c(Cl)cc23)C(C)C1", "69.8%"],
  ["CCc1c2c(nc3ccc(O)cc13)-c1cc3c(c(=O)n1C2)COC(=O)[C@]3(O)CC + C#Cc1c(F)ccc2cc(O)cc(-c3ncc4c(N5CC6CCC(C5)N6)nc(OCC56CCCN5CC(F)C6)nc4c3F)c12", "12.2%"],
  ["CC1(C)CCC(Nc2ncc(C(F)(F)F)c(-c3c[nH]c4c(P(C)(C)=O)c(C#N)ccc34)n2)CN1 (centres undefined) + C#Cc1c(F)ccc2cc(O)cc(-c3ncc4c(N5CC6CCC(C5)N6)nc(OCC56CCCN5CC(F)C6)nc4c3F)c12", "55.6%"],
  ["CCc1c2c(nc3ccc(O)cc13)-c1cc3c(c(=O)n1C2)COC(=O)[C@]3(O)CC + C=CC(=O)N1CCN(c2nc(OCC3CCCN3C)nc3c(F)c(-c4nc(N)cc(C)c4C(F)(F)F)c(Cl)cc23)C(C)C1", "12.1%"]
]}

* * *

Test system: 653999-131-R-J2-PDC complex spheroids, growth inhibition
Test: Anticancer human tumor 653999-131-R-J2-PDC cell line growth inhibition [RAS];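 further: spheroids exposed to the agents for seven days before the readout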
Settings: second compound 0.1 µM; first compound 0.316 µM; active compounds read low
Measured viability, T/C accompanies every entry in the list below.
property: viability, T/C (%)

{"columns": ["molecule", "tgt", "units", "val"],
 "data": [
  ["C[C@@H](NC(=O)c1ncnc(N)c1Cl)c1ncc(C(=O)Nc2cc(C(F)(F)F)c(Cl)cn2)s1 + C#Cc1c(F)ccc2cc(O)cc(-c3ncc4c(N5CC6CCC(C5)N6)nc(OCC56CCCN5CC(F)C6)nc4c3F)c12", "653999-131-R-J2-PDC complex spheroids, growth inhibition", "%", 90],
  ["C=CC(=O)Nc1cc(Nc2nccc(-c3cn(C)c4ccccc34)n2)c(OC)cc1N(C)CCN(C)C + C=CC(=O)N1CCN(c2nc(OCC3CCCN3C)nc3c(F)c(-c4nc(N)cc(C)c4C(F)(F)F)c(Cl)cc23)C(C)C1", "653999-131-R-J2-PDC complex spheroids, growth inhibition", "%", 69.6],
  ["C=CC(=O)N1CCN(c2nc(OCC3CCCN3C)nc3c(F)c(-c4nc(N)cc(C)c4C(F)(F)F)c(Cl)cc23)C(C)C1 (stereo not given) + C#Cc1c(F)ccc2cc(O)cc(-c3ncc4c(N5CC6CCC(C5)N6)nc(OCC56CCCN5CC(F)C6)nc4c3F)c12", "653999-131-R-J2-PDC complex spheroids, growth inhibition", "%", 83.3],
  ["C[C@@H](NC(=O)c1ncnc(N)c1Cl)c1ncc(C(=O)Nc2cc(C(F)(F)F)c(Cl)cn2)s1 + C=CC(=O)N1CCN(c2nc(OCC3CCCN3C)nc3c(F)c(-c4nc(N)cc(C)c4C(F)(F)F)c(Cl)cc23)C(C)C1", "653999-131-R-J2-PDC complex spheroids, growth inhibition", "%", 101],
  ["CC(C)NCC(C(=O)N1CCN(c2ncnc3c2C(C)CC3O)CC1)c1ccc(Cl)cc1 (stereo not given) + C#Cc1c(F)ccc2cc(O)cc(-c3ncc4c(N5CC6CCC(C5)N6)nc(OCC56CCCN5CC(F)C6)nc4c3F)c12", "653999-131-R-J2-PDC complex spheroids, growth inhibition", "%", 70.4],
  ["NC1c2ccccc2OC12CCN(c1cnc3c(N4CCCc5ncccc54)n[nH]c3n1)CC2 (stereo not given) + C=CC(=O)N1CCN(c2nc(OCC3CCCN3C)nc3c(F)c(-c4nc(N)cc(C)c4C(F)(F)F)c(Cl)cc23)C(C)C1", "653999-131-R-J2-PDC complex spheroids, growth inhibition", "%", 70.2],
  ["CC(Nc1ccc2c(c1)OCCn1cc(N3C(=O)OCC3C(F)F)nc1-2)C(N)=O (stereo not given) + C=CC(=O)N1CCN(c2nc(OCC3CCCN3C)nc3c(F)c(-c4nc(N)cc(C)c4C(F)(F)F)c(Cl)cc23)C(C)C1", "653999-131-R-J2-PDC complex spheroids, growth inhibition", "%", 68.8],
  ["Cc1nc(N2CCC3(CC2)COC(C)C3N)c(CO)nc1Sc1ccnc(N)c1Cl (stereo not given) + C#Cc1c(F)ccc2cc(O)cc(-c3ncc4c(N5CC6CCC(C5)N6)nc(OCC56CCCN5CC(F)C6)nc4c3F)c12", "653999-131-R-J2-PDC complex spheroids, growth inhibition", "%", 66],
  ["CC1(O)CCCC1n1c(=O)c(C(F)F)cc2cnc(NC3CCN(S(C)(=O)=O)CC3)nc21 (stereo not given) + C=CC(=O)N1CCN(c2nc(OCC3CCCN3C)nc3c(F)c(-c4nc(N)cc(C)c4C(F)(F)F)c(Cl)cc23)C(C)C1", "653999-131-R-J2-PDC complex spheroids, growth inhibition", "%", 54.4],
  ["O=C(c1ccc(F)c(F)c1Nc1ccc(I)cc1F)N1CC(O)([C@@H]2CCCCN2)C1 + C#Cc1c(F)ccc2cc(O)cc(-c3ncc4c(N5CC6CCC(C5)N6)nc(OCC56CCCN5CC(F)C6)nc4c3F)c12", "653999-131-R-J2-PDC complex spheroids, growth inhibition", "%", 24]
]}

Data origin, for the record: PubChem BioAssay AID2060886
